species: Rattus norvegicus; assay: DrugMatrix - Regimen: Daily Repeat; format: toxicity, organism-based, Sprague-Dawley; parameters: regimen Daily Repeat, gender Male, age 6-8 weeks; settings: in vivo, po, 0 mg/kg, 120 h, tissue Plasma, route oral GAVAGE, dose level Control, time 5 day, vehicle .5 % CMC
measurement kind: BLOOD UREA NITROGEN (mg/dL)

compound: Nc1ccn([C@H]2CC[C@@H](CO)O2)c(=O)n1 [ZALCITABINE]
assay value: 17
//
compound: CCCN1C[C@H](CSC)C[C@@H]2c3cccc4[nH]cc(c34)C[C@H]21 [PERGOLIDE]
assay value: 18.17
//
compound: O=C(CCCN1CC=C(n2c(=O)[nH]c3ccccc32)CC1)c1ccc(F)cc1 [DROPERIDOL]
assay value: 16.67
//
compound: Cc1nc2n(c(=O)c1CCN1CCC(c3noc4cc(F)ccc34)CC1)CCCC2 [RISPERIDONE]
assay value: 18.67

* * *

organism: Rattus norvegicus; experiment: DrugMatrix - Regimen: Daily Repeat; type: toxicity, organism-based, Sprague-Dawley; parameters: regimen Daily Repeat, gender Male, age 6-8 weeks; details: in vivo, po, 0 mg/kg, 72 h, tissue Plasma, route oral GAVAGE, dose level Control, time 3 day, vehicle 100 % WATER
The entries below come with measured CHLORIDE values attached.
measurement kind: CHLORIDE (MEQ/L)

molecule: Clc1cccc(Cl)c1N=C1NCCN1 [CLONIDINE]
assay value: 99.83
//
molecule: C=CCC1(C(C)CCC)C(=O)NC(=O)NC1=O (stereo unspecified) [SECOBARBITAL]
assay value: 99.33
//
molecule: Cc1onc(-c2ccccc2Cl)c1C(=O)N[C@@H]1C(=O)N2[C@@H]1SC(C)(C)[C@@H]2C(=O)O [CLOXACILLIN]
assay value: 100.83
//
molecule: c1ccc([C@H]2CN3CCSC3=N2)cc1 [LEVAMISOLE]
assay value: 99.5
//
molecule: CN(C)CCCN1c2ccccc2Sc2ccc(Cl)cc21 [CHLORPROMAZINE]
assay value: 97.67
//
molecule: NCCCCCC(=O)O [AMINOCAPROIC ACID]
assay value: 100.83
//
molecule: C[C@H](CS)C(=O)N1CCC[C@H]1C(=O)O [CAPTOPRIL]
assay value: 100.67
//
molecule: C[C@](N)(Cc1ccc(O)c(O)c1)C(=O)O [METHYLDOPA]
assay value: 103.17
//
molecule: CNNCc1ccc(C(=O)NC(C)C)cc1 [PROCARBAZINE]
assay value: 100.83
//
molecule: COc1cc2nc(N3CCN(C(=O)C4COc5ccccc5O4)CC3)nc(N)c2cc1OC (stereo unspecified) [DOXAZOSIN]
assay value: 103.83
//
molecule: CC(O)CO (stereo unspecified) [PROPYLENE GLYCOL]
assay value: 100.83

* * *

organism: Rattus norvegicus; experiment: DrugMatrix - Regimen: Daily Repeat; format: toxicity, organism-based, Sprague-Dawley; parameters: regimen Daily Repeat, gender Male, age 6-8 weeks; settings: in vivo, po, 0 mg/kg, 120 h, tissue Blood, route oral GAVAGE, dose level Control, time 5 day, vehicle .5 % CMC
measurement kind: MEAN CORPUSCULAR HEMOGLOBIN (pg)

compound: O=C(CCCN1CC=C(n2c(=O)[nH]c3ccccc32)CC1)c1ccc(F)cc1 [DROPERIDOL]
measurement kind: MEAN CORPUSCULAR HEMOGLOBIN
assay value: 20.1
//
compound: ClC(Br)Br [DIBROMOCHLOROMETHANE]
measurement kind: MEAN CORPUSCULAR HEMOGLOBIN
assay value: 22.52
//
compound: Cc1ccc(/N=C/N(C)/C=N/c2ccc(C)cc2C)c(C)c1 [AMITRAZ]
measurement kind: MEAN CORPUSCULAR HEMOGLOBIN
assay value: 25.02
//
compound: Nc1ccn([C@H]2CC[C@@H](CO)O2)c(=O)n1 [ZALCITABINE]
measurement kind: MEAN CORPUSCULAR HEMOGLOBIN
assay value: 20.25
//
compound: CCn1cc(C(=O)O)c(=O)c2cc(F)c(N3CCNCC3)cc21 [NORFLOXACIN]
measurement kind: MEAN CORPUSCULAR HEMOGLOBIN
assay value: 25.02
//
compound: COc1nc(C)nc(Cl)c1N=C1NCCN1 [MOXONIDINE]
measurement kind: MEAN CORPUSCULAR HEMOGLOBIN
assay value: 24.48
//
compound: CC(C)(C)NC(=O)[C@@H]1C[C@@H]2CCCC[C@@H]2CN1C[C@@H](O)[C@H](Cc1ccccc1)NC(=O)[C@H](CC(N)=O)NC(=O)c1ccc2ccccc2n1
measurement kind: MEAN CORPUSCULAR HEMOGLOBIN
assay value: 23.22
//
compound: CCCN1C[C@H](CSC)C[C@@H]2c3cccc4[nH]cc(c34)C[C@H]21 [PERGOLIDE]
measurement kind: MEAN CORPUSCULAR HEMOGLOBIN
assay value: 24.12
//
compound: CCCCc1oc2ccccc2c1C(=O)c1cc(I)c(OCCN(CC)CC)c(I)c1 [AMIODARONE]
measurement kind: MEAN CORPUSCULAR HEMOGLOBIN
assay value: 23.57
//
compound: CN1CCN(CCCN2c3ccccc3Sc3ccc(Cl)cc32)CC1 [PROCHLORPERAZINE]
measurement kind: MEAN CORPUSCULAR HEMOGLOBIN
assay value: 24.97
//
compound: CC1CC(OC(=O)C(O)c2ccccc2)CC(C)(C)C1 (stereo not drawn) [CYCLANDELATE]
measurement kind: MEAN CORPUSCULAR HEMOGLOBIN
assay value: 24.25
//
compound: Cc1nc2n(c(=O)c1CCN1CCC(c3noc4cc(F)ccc34)CC1)CCCC2 [RISPERIDONE]
measurement kind: MEAN CORPUSCULAR HEMOGLOBIN
assay value: 23.57
//
compound: C1CCC(C(CC2CCCCN2)C2CCCCC2)CC1 (stereo not drawn) [PERHEXILINE]
measurement kind: MEAN CORPUSCULAR HEMOGLOBIN
assay value: 20.44
//
compound: ClC(Cl)Br [BROMODICHLOROMETHANE]
measurement kind: MEAN CORPUSCULAR HEMOGLOBIN
assay value: 22.52
//
compound: OCCN(CCO)c1nc(N2CCCCC2)c2nc(N(CCO)CCO)nc(N3CCCCC3)c2n1 [DIPYRIDAMOLE]
measurement kind: MEAN CORPUSCULAR HEMOGLOBIN
assay value: 24.25
//
compound: NC1=NC(=O)C(c2ccccc2)O1 (stereo not drawn) [PEMOLINE]
measurement kind: MEAN CORPUSCULAR HEMOGLOBIN
assay value: 24.65
//
compound: CCOP(=S)(OCC)Oc1nc(Cl)c(Cl)cc1Cl [CHLORPYRIFOS]
measurement kind: MEAN CORPUSCULAR HEMOGLOBIN
assay value: 20.6
//
compound: N=C(N)NCCN1CCCCCCC1 [GUANETHIDINE]
measurement kind: MEAN CORPUSCULAR HEMOGLOBIN
assay value: 24.25

* * *

species on record: Rattus norvegicus; experiment: DrugMatrix - Regimen: Daily Repeat; type: toxicity, organism-based, Sprague-Dawley; set-up: regimen Daily Repeat, gender Male, age 6-8 weeks; conditions: in vivo, po, 0 mg/kg, 120 h, tissue Blood, route oral GAVAGE, dose level Control, time 5 day, […]
measurement kind: MONOCYTE (%)

molecule: CN(C)c1nc(N(C)C)nc(N(C)C)n1
assay value: 1.17

molecule: O=c1oc2ccccc2c(O)c1Cc1c(O)c2ccccc2oc1=O
assay value: 1

molecule: O=C(O)CCCc1ccc(N(CCCl)CCCl)cc1
assay value: 2

molecule: Cc1oncc1C(=O)Nc1ccc(C(F)(F)F)cc1 [LEFLUNOMIDE]
assay value: 1

molecule: Cc1noc(NS(=O)(=O)c2ccc(N)cc2)c1C
assay value: 0.83

molecule: Cc1ccc(-c2cc(C(F)(F)F)nn2-c2ccc(S(N)(=O)=O)cc2)cc1
assay value: 2

molecule: CC(C)(Oc1ccc(Cl)cc1)C(=O)O
assay value: 1

molecule: CC(C)C(=O)Nc1ccc([N+](=O)[O-])c(C(F)(F)F)c1 [FLUTAMIDE]
assay value: 0.33

molecule: O=NN(CCCl)C(=O)NC1CCCCC1
assay value: 1.17

molecule: C[C@@H]1CN(c2c(F)c(N)c3c(=O)c(C(=O)O)cn(C4CC4)c3c2F)C[C@H](C)N1
assay value: 1.17

molecule: CCC(C)n1ncn(-c2ccc(N3CCN(c4ccc(OCC5COC(Cn6cncn6)(c6ccc(Cl)cc6Cl)O5)cc4)CC3)cc2)c1=O (centres undefined)
assay value: 2

molecule: C[C@H]1O[C@@H](O[C@H]2[C@@H](O)C[C@H](O[C@H]3[C@@H](O)C[C@H](O[C@H]4CC[C@@]5(C)[C@H](CC[C@@H]6[C@@H]5C[C@@H](O)[C@]5(C)[C@@H](C7=CC(=O)OC7)CC[C@]65O)C4)O[C@@H]3C)O[C@@H]2C)C[C@H](O)[C@@H]1O
assay value: 0.5

molecule: OC(Cn1cncn1)(Cn1cncn1)c1ccc(F)cc1F
assay value: 2

molecule: CCOC(=O)C1=C(COCCN)NC(C)=C(C(=O)OC)C1c1ccccc1Cl (centres undefined)
assay value: 1.17
